experiment: chemical genetic growth profiling, strain panel (AID 1159580);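 also: tested at 20 µM; growth read once vehicle control cultures reached saturation at 30 °C; 1 = growth at the plate median or of vehicle wells; lower values mean less growth of the strain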; conditions: S. cerevisiae deletion strains, growth OD, locus YOR184W, strain ser1, active compounds read low
Screen size: about 5,500 compounds; about 2,000 (36%) were called active. Roughly 18% stayed inconclusive and do not appear here. Some of the results follow.
Hi! Just check whether normalized growth is below 1. Below gives Met, equal or above gives Not met.

| compound | cat |
| --- | --- |
| CC1(C)O[C@@H]2CC3C4CCC5=CC(=O)CCC5(C)C4(F)C(O)CC3(C)[C@]2(C(=O)CCl)O1 (stereo partly drawn) | Met |
| CCCC(=O)O[C@]1(C(=O)CO)CCC2[C@@H]3CCC4=CC(=O)CC[C@]4(C)C3[C@@H](O)C[C@@]21C (stereo partly drawn) | Met |
| COc1cc(-c2coc3cc(OC)c(OC)c(OC)c3c2=O)cc(OC)c1OC | Not met |

API: query returns whether the compound falls strictly under 1 in normalized growth. Query: CC1(C)C2(Cl)C(Cl)C(Cl)C(Cl)(C(Cl)Cl)C1(Cl)C2Cl (stereo not drawn) Met

Same thing, different compound: C=C1C(C)C2C(Cc3ccccc3)NC(=O)C23OC(=O)/C=C/C(O)CCCC(C)C/C=C/C3C1O (stereo not drawn) Not met

Same thing, different compound: C=CCCCCCCCCCCCC(O)CC(O)COC(C)=O (stereo not drawn) (tested in a mixture with another compound) Met

Same thing, different compound: COc1cc2occ(-c3ccccc3)c(=O)c2c(OC)c1C Met

Same thing, different compound: C#CCCCCCCCCCCCC(=O)CC(O)COC(C)=O (stereo not drawn) Met

Same thing, different compound: CC(C)NNC(=O)c1ccncc1 Not met

Same thing, different compound: O=c1[nH]oc2c1CCNC2 Met

* * *

assay: chemical genetic growth profiling, strain panel (AID 1159580); settings: S. cerevisiae deletion strains, growth OD, locus YDL132W, strain cdc53, active compounds read low
In all, about 5,500 compounds went through this assay and about 2,000 (36%) were called active. Inconclusive results (about 18%) are left out. Some of the results follow.
Recorded normalized growth, one value per entry.
Number, no unit, nothing else.

Use the examples below as a reference point.
| compound | val |
| --- | --- |
| O=C(Nc1ccc(Cl)cc1)OCCSc1nc2ccccc2s1 | 0.979 |
| FC(F)(F)c1ccnc(N2CCCN(C(=S)Nc3ccc(Cl)cc3Cl)CC2)n1 | 0.977 |
| OC(=Cc1nc2ccccc2nc1C=C(O)c1ccc(Cl)cc1)c1ccc(Cl)cc1 | 0.995 |
| N#CC(C#N)=Cc1ccc(-c2ccccc2C(F)(F)F)o1 | 0.947 |
| O=[N+]([O-])c1ccc2oc(C(O)c3ccc(-c4ccccc4)cc3)cc2c1 (stereo not drawn) | 0.996 |
| Cc1ccc(NNC(=O)c2c(C)noc2C)cc1Cl | 0.987 |
| Cc1nc(-c2ccc(S(=O)(=O)Nc3ccc(Br)cc3Cl)s2)cs1 | 0.951 |
| CC(C)(C)c1ccc(C(=O)Nc2ccc(C(F)(F)F)cc2)s1 | 0.988 |

normalized growth for FC(F)(F)c1cccc(-n2c(CSCc3cccc4ccccc34)n[nH]c2=S)c1 ? 0.988

Same thing, different compound: Cc1ccc(NS(=O)(=O)c2ccc(-c3csc(C)n3)s2)c(C)c1 0.989

Same thing, different compound: Cc1ccc(NC(=O)c2ccccc2N=Cc2cc(Cl)cc(Cl)c2O)c(N=Cc2cc(Cl)cc(Cl)c2O)c1 0.937

Same thing, different compound: O=c1c2ccccc2[nH]c(=S)n1-c1cccc(C(F)(F)F)c1 0.944

Same thing, different compound: Cc1onc(-c2c(F)cccc2Cl)c1C(=O)NNc1cc(Cl)cc(Cl)c1 0.989

* * *

experiment: chemical genetic growth profiling, strain panel (AID 1159580); conditions: S. cerevisiae deletion strains, growth OD, locus YPR106W, strain ISR1, active compounds read low
In all, about 5,500 compounds went through this assay and about 2,000 (36%) were called active. Roughly 18% stayed inconclusive and do not appear here. This is one part of the list.
Recorded normalized growth, one value per entry.
Number, no unit, nothing else.

normalized growth for FC(F)(F)c1cccc(-n2c(CSCc3cccc4ccccc34)n[nH]c2=S)c1 ? 0.981

Same thing, different compound: CCCCCCCCCCCC(=O)NOC(=O)c1c(-c2c(Cl)cccc2Cl)noc1C 1

* * *

experiment: chemical genetic growth profiling, strain panel (AID 1159580); settings: S. cerevisiae deletion strains, growth OD, locus YOR001W, strain rrp6, active compounds read low
Out of some 5,500 compounds screened, about 2,000 (36%) were called active. About 18% were inconclusive and are not listed. The list shows a part of the results.
Hi! Just check whether normalized growth is below 1. Below gives 1, equal or above gives -1.

Examples with answers:
| molecule | cat |
| --- | --- |
| CCN(CC)C(=O)c1cccc(C)c1 | -1 |
| O=C1[C@H](CCC(O)c2ccc(F)cc2)[C@@H](c2ccc(O)cc2)N1c1ccc(F)cc1 (stereo partly specified) | 1 |

Continue with the molecule presented below.
API: query returns whether the molecule falls strictly under 1 in normalized growth. Query: COc1cc([C@@H]2c3cc4c(c(O)c3C[C@H]3COC(=O)[C@@H]32)OCO4)cc(OC)c1OC 1

* * *

Recorded normalized growth, one value per entry.
test: chemical genetic growth profiling, strain panel (AID 1159580);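 also: tested at 20 µM; growth read once vehicle control cultures reached saturation at 30 °C; 1 = growth at the plate median or of vehicle wells; lower values mean less growth of the strain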; conditions: S. cerevisiae deletion strains, growth OD, locus YHR094C, strain hxt1, active compounds read low
Out of some 5,500 compounds screened, about 2,000 (36%) were called active. Another 18% or so got no clear call; they are omitted. Some of the results follow.
Number, no unit, nothing else.

Use the examples below as a reference point.
| compound | val |
| --- | --- |
| CN1C(C(=O)Nc2ccccn2)=C(O)c2ccccc2S1(=O)=O | 0.956 |
| COc1ccc2c(c1O)OCC1c3cc4c(cc3OC21)OCO4 (stereo unspecified) | 1 |
| CC1(C)O[C@@H]2CC3C4CCC5=CC(=O)CCC5(C)C4(F)C(O)CC3(C)[C@]2(C(=O)CCl)O1 (stereo partly specified) | 0.998 |
| O=c1[nH]oc2c1CCNC2 | 0.973 |
| Oc1ccc2c(c1)OCC1c3cc4c(cc3OC21)OCO4 (stereo unspecified) | 0.982 |

normalized growth for COc1ccc2c(c1OC)C(=O)OC2[C@H]1c2c(cc3c(c2OC)OCO3)CCN1C (stereo partly specified) ? 0.988

* * *

assay: chemical genetic growth profiling, strain panel (AID 1159580);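 also: tested at 20 µM; growth read once vehicle control cultures reached saturation at 30 °C; 1 = growth at the plate median or of vehicle wells; lower values mean less growth of the strain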; details: S. cerevisiae deletion strains, growth OD, locus YML032C, strain rad52, active compounds read low
Screen size: about 5,500 compounds; about 2,000 (36%) were called active. About 18% were inconclusive and are not listed. The list shows a part of the results.
parameter: normalized growth
Number, no unit, nothing else.

| compound | normalized growth |
| --- | --- |
| Oc1ccc(Cl)cc1 | 0.963 |

Okay, now this compound:
normalized growth for CC(C)NC[C@H](O)COc1cccc2ccccc12 ? 0.997

* * *

experiment: chemical genetic growth profiling, strain panel (AID 1159580);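 also: tested at 20 µM; growth read once vehicle control cultures reached saturation at 30 °C; 1 = growth at the plate median or of vehicle wells; lower values mean less growth of the strain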; conditions: S. cerevisiae deletion strains, growth OD, locus YFR010W, strain ubp6
Screen size: about 5,500 compounds; about 2,000 (36%) were called active. Not shown: some 18% with an inconclusive outcome. Rule as the data show it: active = normalized growth mostly below about 0.91 (no sharp cut-off); inconclusive = no clear call, values can overlap the other calls; inactive = mostly above about 0.92. The list shows a part of the results.
Form entry, call: pick from class 1 = active, class 0 = inactive

Examples with answers:
| compound | cat |
| --- | --- |
| CC[N+](CC)(CC)CCOc1cccc(OCC[N+](CC)(CC)CC)c1OCC[N+](CC)(CC)CC | class 0 |
| C[C@H]1CC[C@@H](C(C)(C)O)CC2=C1CC[C@@H]2C | class 0 |

Record request — test call for C=C1CCC(OC(C)=O)/C(C)=C/C[C@@H]2[C@@H]1CC2(C)C (some centres not stated) class 0

Same thing, different compound: O=C(O)CN1C(=O)c2cccc3cccc(c23)C1=O class 0

Same thing, different compound: CCOC(=O)c1ccc(O)cc1 class 0

Same thing, different compound: COc1c2ccoc2c(OC)c2oc(=O)ccc12 class 0

Same thing, different compound: C=C1CCC(C2CC(=O)OC2=O)C(=O)CCC2C1CC2(C)C (configuration not stated) class 0

Same thing, different compound: CC(C)(C)CC(C)(C)c1ccc(O)c(Cc2ccc(Cl)cc2Cl)c1 class 0

Same thing, different compound: CCCCCCCCCCCCCCCC(=O)OC1C(SC)OC(C(NC(=O)C2CC(CCC)CN2C)C(C)Cl)C(O)C1O (configuration not stated) class 0

Same thing, different compound: C[C@@H]1C(=O)OC2[C@H](O)C34[C@@H]5OC(=O)[C@@]3(O[C@@H]3OC(=O)[C@H](O)[C@@]34[C@H](C(C)(C)C)[C@H]5O)[C@]21O (some centres not stated) class 0

Same thing, different compound: C=C1CCC2C(CC2(C)C)C(=O)CCC1O (configuration not stated) class 0

Same thing, different compound: CCCCN1CCCCC1C(=O)Nc1c(C)cccc1C (configuration not stated) class 0

Same thing, different compound: COC(=O)C[C@H]1C(C)(C)C(=O)[C@@H]2CC3=C(CC[C@]4(C)C3=CC(=O)O[C@H]4c3ccoc3)[C@@]1(C)C2=O class 0

Same thing, different compound: O=C(O)c1ccccc1-c1c2cc(Br)c(=O)cc-2oc2[c]([Hg])c(O)c(Br)cc12 class 0
